- Tested on: HCT116p53+/+ cells
- measurement-protocol: MTT cell viability assay, HCT116 p53 wild type cells
- Assay type: cell-based, human
- particulars: HCT116 p53 wild type cells; absence of chemotherapy; read-out: IC50(72h) dose
test-readout: IC50

Hi! What's the reported IC50 for FT siRNA: siRNA inhibiting both splice variants of c-FLIP; sequence AAGCAGTCTGTTCAAGGAGCA (AAGCAGTCTGTTCAAGGAGCA; chemistry not given here) on HCT116p53+/+ cells?
~0.7 nM

* * *

- Tested on: RKO cells
- measurement-protocol: MTT cell viability assay, RKO cells
- Format: cell-based
- particulars: absence of chemotherapy, read-out: IC50(72h) dose
pIC50: −log10 of the molar value.
test-readout: pIC50

Consider the substance shown here: FT siRNA: siRNA inhibiting both splice variants of c-FLIP; sequence AAGCAGTCTGTTCAAGGAGCA (AAGCAGTCTGTTCAAGGAGCA; chemistry not given here) What is its recorded pIC50?
~8.30
